Test system: hiPSC-derived neurons co-cultured with human primary astrocytes in 3D
assay: Ca2+ transient oscillation assay (FDSS), 3D spheroids
Assay type: cell-based
test_context: 3 µM; 60 min
test_readout: Peak amplitude - 3D Mean (% change from baseline)
Write the number in % change from baseline without appending the unit.

Here is how some compounds turned out for Peak amplitude - 3D Mean.
[[record]]
smiles_string = "Clc1ccc2c(c1)C(N1CCNCC1)=Nc1ccccc1O2"
value_units = "% change from baseline"
value = 105.1

[[record]]
smiles_string = "CC1(C)S[C@@H]2[C@H](NC(=O)[C@H](N)c3ccc(O)cc3)C(=O)N2[C@H]1C(=O)O"
value_units = "% change from baseline"
value = 123.5

[[record]]
smiles_string = "C[C@]12N[C@H](Cc3ccccc31)c1ccccc12"
value_units = "% change from baseline"
value = 67.2

[[record]]
smiles_string = "CN(C)CCCN1c2ccccc2Sc2ccc(Cl)cc21"
value_units = "% change from baseline"
value = 98.4


Below: the item to evaluate.
Ask | # query: Peak amplitude - 3D Mean | item NCCCC(=O)O | system: hiPSC-derived neurons co-cultured with human primary astrocytes in 3D
Reply | 110.9

* * *

Test system: hiPSC-derived neurons co-cultured with human primary astrocytes in 3D
assay: Ca2+ transient oscillation assay (FDSS), 3D spheroids
Type: cell-based
test_context: 33.33 µM; 60 min
Catalogue of Peak Number—3D Mean readings, one per entry.
Output spec: scalar in % change from baseline, unitless text.

[[record]]
molecule = "CC(=O)Oc1ccccc1C(=O)O [Aspirin]"
test_readout = "Peak Number—3D Mean"
value = 10.0


Ask | For NC(=O)N1c2ccccc2C=Cc2ccccc21 [Carbamazepine] , what is its reported Peak Number—3D Mean?
Reply | −19.3

Ask | State the recorded Peak Number—3D Mean for this entry: O=C1NC(=O)C(c2ccccc2)(c2ccccc2)N1 [Phenytoin]
Reply | −14.6

* * *

The reader will find reported activation at 1.11 µM values listed item by item below.
Test system: hiPSC-derived neurons co-cultured with human primary astrocytes in 2D
assay: Ca2+ transient oscillation assay (FDSS), 2D co-culture
Assay type: cell-based
test_context: Homo sapiens, 1 h; 1.11 µM; 60 min; read-out: Peak-to-peak interval - 2D Mean
Please append the unit to your numeric answer.

[[record]]
compound = "CNCCCC12CCC(c3ccccc31)c1ccccc12 [Maprotiline]"
test_readout = "activation at 1.11 µM"
value = "11.7%"

[[record]]
compound = "Nc1ccncc1 [4-AP, 4-Aminopyridine]"
test_readout = "activation at 1.11 µM"
value = "-29.8%"


Ask | For the compound OC(c1cc(C(F)(F)F)nc2c(C(F)(F)F)cccc12)C1CCCCN1 (stereo not drawn) [Mefloquine] , what activation at 1.11 µM is on record?
Reply | 25%

Ask | Would you kindly share the measured activation at 1.11 µM for CCn1cc(C(=O)O)c(=O)c2cc(F)c(N3CCNCC3)nc21 [Enoxacin] ?
Reply | 1.3%

Ask | Reported activation at 1.11 µM, compound CC[C@@H]1C(=O)OC[C@@H]1Cc1cncn1C [Pilocarpine] : ____
Reply | 5.8%

Ask | # input compound: Cc1ccc(Nc2nccc(N(C)c3ccc4c(C)n(C)nc4c3)n2)cc1S(N)(=O)=O [Pazopanib] ; wanted: its activation at 1.11 µM
Reply | -2.6%

* * *

Tested on: hiPSC-derived neurons co-cultured with human primary astrocytes in 3D
assay: Ca2+ transient oscillation assay (FDSS), 3D spheroids
Format: cell-based
test_context: 0.11 µM; 60 min
Experimental: In this study, we used cryopreserved excitatory neurons that were differentiated from human induced pluripotent stem cells (hiPSCs; Cat #: EX-SeV-CW50065) (Elixirgen Scientific, Inc., Baltimore, MD, USA). […] Prior to the fluorescence measurements, all wells to be measured were treated with 0.04% dimethyl sulfoxide (DMSO) to stabilize the oscillation signal. […] The effects of the test compound were recorded again starting 60 min after the administration of compounds, for 20 min. […]
test_readout: Peak width - 3D Mean
Answers without a unit are incomplete; give the number and then its unit.

Below: 5 compounds and their reported Peak width - 3D Mean.
[[record]]
compound = "CN1CCN(C2=Nc3cc(Cl)ccc3Nc3ccccc32)CC1 [Clozapine]"
measurement_target = "hiPSC-derived neurons co-cultured with human primary astrocytes in 3D"
test_readout = "Peak width - 3D Mean"
value = "8.6 % change from baseline"

[[record]]
compound = "CN(C)CCCN1c2ccccc2Sc2ccc(Cl)cc21 [Chlorpromazine]"
measurement_target = "hiPSC-derived neurons co-cultured with human primary astrocytes in 3D"
test_readout = "Peak width - 3D Mean"
value = "13.3 % change from baseline"

[[record]]
compound = "NCCCC(=O)O [GABA, gamma-aminobutyric acid]"
measurement_target = "hiPSC-derived neurons co-cultured with human primary astrocytes in 3D"
test_readout = "Peak width - 3D Mean"
value = "7.6 % change from baseline"

[[record]]
compound = "Clc1ccc2c(c1)C(N1CCNCC1)=Nc1ccccc1O2 [Amoxapine]"
measurement_target = "hiPSC-derived neurons co-cultured with human primary astrocytes in 3D"
test_readout = "Peak width - 3D Mean"
value = "11.9 % change from baseline"

[[record]]
compound = "CC1(C)S[C@@H]2[C@H](NC(=O)[C@H](N)c3ccc(O)cc3)C(=O)N2[C@H]1C(=O)O [Amoxicillin]"
measurement_target = "hiPSC-derived neurons co-cultured with human primary astrocytes in 3D"
test_readout = "Peak width - 3D Mean"
value = "4.7 % change from baseline"


Let us move to another entry and its Peak width - 3D Mean.
Ask | Name the reported Peak width - 3D Mean value associated with the compound C[C@]12N[C@H](Cc3ccccc31)c1ccccc12 [MK-801, Dizocilpine]
Reply | 8.0 % change from baseline
